experiment: in vitro; conditions: human, uninfected PHA-stimulated human PBM cells
Listing of recorded IC50 by entry.
Quick note: give the figure in µM, leave out the unit.

COMPOUND | UNITS TEXT | NUMERIC VALUE
Cc1ccc(N2C(=O)CCC2(CN)c2ccccc2)cc1 (stereo not shown) | µM | 54.1
Cc1cc(C)cc(NC(C(N)=O)c2c(Cl)cccc2Cl)c1 (stereo not shown) | µM | 6.1
Cc1ccc(N2C(=O)CCC2(CN)c2ccc(OCc3ccccc3)cc2)cc1 (stereo not shown) | µM | 15.9
Cc1ccc(N2C(=O)CCC2(C#N)c2ccc(OCc3ccc(Cl)cc3Cl)cc2)cc1 (stereo not shown) | µM | 9.7

Now for a further compound.
Query: For Cc1ccc(NC(C#N)c2ccc(OCc3ccc(Cl)cc3Cl)cc2)cc1 (stereo not shown) , what is its reported IC50?
Result: 15

====

tested on: CEM (T-lymphoblastoid cell line)
ATTRIBUTE MEASURED: IC50 (µM)
The reply should contain only the number, in µM.

Query: Entry NCC1(c2ccccc2)CCCN1C(=O)c1ccc(Br)cc1 (stereo not shown) [Compound 10] has what IC50?
Result: 96.1

====

assay: in vitro; conditions: African green monkey, Vero (African green monkey kidney) cells
Measured pIC50 by item
As a rule, pIC50 stands for the negative log10 of the concentration, concentration in M.

Worked examples follow.
COMPOUND | pIC50
Cc1ccc(N2C(=O)CCC2(CN)c2ccc(OCc3ccccc3)cc2)cc1 (stereo not shown) | 4.91
Cc1cc(C)cc(NC(C(N)=O)c2c(Cl)cccc2Cl)c1 (stereo not shown) | 4.16
Cc1ccc(NC(C#N)c2ccc(OCc3ccc(Cl)cc3Cl)cc2)cc1 (stereo not shown) | 4.40
Cc1ccc(N2C(=O)CCC2(C#N)c2ccc(OCc3ccccc3)cc2)cc1 (stereo not shown) | 4.27
Cc1ccc(N2C(=O)CCC2(C#N)c2ccc(OCc3ccc(Cl)cc3Cl)cc2)cc1 (stereo not shown) | 4.66

Now for the compound whose pIC50 we want.
Query: Could you share which pIC50 value was measured for Cc1ccc(N2C(=O)CCC2(C#N)c2ccc(OC(C)C)cc2)cc1 (stereo not shown) ?
Result: 4.33

====

tested on: human PBM cells; settings: read-out: Cytotoxicity IC50 PBM; uninfected PHA-stimulated human PBM cells
Reported IC50 is given for each of the following compounds.

COMPOUND | RESULT
NCC1(c2ccccc2)CCCN1C(=O)c1ccc(Br)cc1 (centres unmarked) | > 100 µM

Please turn your attention to the following entry.
Query: IC50 for Cc1cn([C@H]2C[C@H](N=[N+]=[N-])[C@@H](CO)O2)c(=O)[nH]c1=O [AZT, 3′-Azido-2′,3′-dideoxythymidine, reference compound] ?
Result: > 100 µM

====

Documented pIC50 across a set of compounds
experiment: in vitro; conditions: human
By convention, pIC50 is the negative base-10 log of a molar concentration.

COMPOUND | pIC50
Cc1cc(C)cc(NC(C(N)=O)c2c(Cl)cccc2Cl)c1 (stereo not shown) [Compound 4] | 5.24
Cc1ccc(NC(C#N)c2ccc(OCc3ccc(Cl)cc3Cl)cc2)cc1 (stereo not shown) [Compound 2h] | 4.93
Cc1ccc(N2C(=O)CCC2(C#N)c2ccc(OCc3ccccc3)cc2)cc1 (stereo not shown) [Compound 3g] | 4.52
Cc1ccc(N2C(=O)CCC2(C#N)c2ccc(OC(C)C)cc2)cc1 (stereo not shown) [Compound 3e] | 4.77
Cc1ccc(N2C(=O)CCC2(C#N)c2ccc(OCc3ccc(Cl)cc3Cl)cc2)cc1 (stereo not shown) [Compound 3h] | 5.18
Cc1ccc(N2C(=O)CCC2(CN)c2ccccc2)cc1 (stereo not shown) [Compound 5a] | 4.27

Query: Which pIC50 is listed for Cc1ccc(N2C(=O)CCC2(CN)c2ccc(OCc3ccccc3)cc2)cc1 (stereo not shown) [Compound 5f] ?
Result: 4.47
